Source of measurements: patent US20250236603A1

# experimental.setup: pH 1.2
Solubility after 1 hour reference

compound: CCc1cc2c(cc1N1CCC(N3CCOCC3)CC1)C(C)(C)c1[nH]c3cc(C#N)ccc3c1C2=O.CS(=O)(=O)O [Methane sulfonate salt, Form 12, Alectinib methane sulfonate salt]
reported.measurement: 1350 µg/mL

Need Solubility after 1 hour, item CCc1cc2c(cc1N1CCC(N3CCOCC3)CC1)C(C)(C)c1[nH]c3cc(C#N)ccc3c1C2=O.CS(=O)(=O)O [Methane sulfonate salt, Form 3, Alectinib methane sulfonate salt]
1210 µg/mL

Ok, now CCc1cc2c(cc1N1CCC(N3CCOCC3)CC1)C(C)(C)c1[nH]c3cc(C#N)ccc3c1C2=O.CS(=O)(=O)O [Methane sulfonate salt, Form 15, Alectinib methane sulfonate salt]
1190 µg/mL

Ok, now CCc1cc2c(cc1N1CCC(N3CCOCC3)CC1)C(C)(C)c1[nH]c3cc(C#N)ccc3c1C2=O.CS(=O)(=O)O [Methane sulfonate salt, Form 14, Alectinib methane sulfonate salt]
1320 µg/mL

Ok, now CCc1cc2c(cc1N1CCC(N3CCOCC3)CC1)C(C)(C)c1[nH]c3cc(C#N)ccc3c1C2=O.CS(=O)(=O)O [Methane sulfonate salt, Form 13, Alectinib methane sulfonate salt]
1300 µg/mL

----------
# test.summary: Solubilities of prepared salts (buffer pH 1.2 with 4% Triton X-100, HPLC)
# experimental.setup: Example 18, 20 mg salt in 10 ml buffer pH 1.2 and 4% Triton X-100, +37° C., 100 rpm
result.type: Solubility after 1 hour
Form field: result (number plus unit)

// worked examples, Solubility after 1 hour included
molecule: CCc1cc2c(cc1N1CCC(N3CCOCC3)CC1)C(C)(C)c1[nH]c3cc(C#N)ccc3c1C2=O.O=C(O)C=CC(=O)O [Fumaric acid (1:1) salt, Form 6, Alectinib fumaric acid (1:1) salt]
Solubility after 1 hour: 1220 µg/mL
--
molecule: CCc1cc2c(cc1N1CCC(N3CCOCC3)CC1)C(C)(C)c1[nH]c3cc(C#N)ccc3c1C2=O.O=C(O)C=CC(=O)O [Fumaric acid (1:1) salt, Form 2, Alectinib fumaric acid (1:1) salt]
Solubility after 1 hour: 1300 µg/mL
--
molecule: CCc1cc2c(cc1N1CCC(N3CCOCC3)CC1)C(C)(C)c1[nH]c3cc(C#N)ccc3c1C2=O.Cl [HCl, reference compound]
Solubility after 1 hour: 370 µg/mL

Need Solubility after 1 hour, item CCc1cc2c(cc1N1CCC(N3CCOCC3)CC1)C(C)(C)c1[nH]c3cc(C#N)ccc3c1C2=O.CCc1cc2c(cc1N1CCC(N3CCOCC3)CC1)C(C)(C)c1[nH]c3cc(C#N)ccc3c1C2=O.O=C(O)C=CC(=O)O [Fumaric acid (2:1) salt, Form 2, Alectinib fumaric acid (2:1) salt]
1230 µg/mL
